Target: Gag-Pol polyprotein [600-1027,R876K]/[600-1155] (Human immunodeficiency virus 1, UniProt P03366, R876K)
Construct: 600-1027; 600-1155
Test: HIV-1 RT Assay
EXPERIMENTAL ENDPOINT: pIC50
The read-out pIC50 is expressed as -log10 of concentration in moles per litre.

Return reported pIC50. Input molecule: Nc1ccc(OCc2ccnc3c2NC(=O)c2cccnc2N3C2CC2)cc1
7.00

* * *

Biological target: Gag-Pol polyprotein [600-1027,R876K]/[600-1155] (Human immunodeficiency virus 1, UniProt P03366, R876K)
Construct: 600-1027; 600-1155
Assay: HIV-1 RT Assay
Conditions: pH 7.8; 22 °C
EXPERIMENTAL ENDPOINT: IC50 (µM)
// units = µM; emit number, no label

Return reported IC50. Input compound: O=C1Nc2c(CO)ccnc2N(C2CC2)c2ncccc21
3
